// data source = patent US4248883A

- Tested on: Goldblatt two-kidney renal hypertensive rats
- Assay overview: Test 1: antihypertensive activity, oral, tail-plethysmographic blood pressure in Goldblatt two-kidney renal hypertensive rats
- Type: in vivo, rat (male STD Wistar strain)
- Study conditions: Rattus norvegicus; oral, 0.1 millimole/kg, 7 hours after administration, % of initial blood pressure; read-out: Change in blood pressure, 7 hours after administration (%)
Catalogue of change in vivo at 100 µmol/kg readings, one per entry.
Write down the numeric answer in % and omit the unit.

{"Compound": "CC(=O)SC[C@@H](C)C(=O)N1CCC[C@H]1C(N)=O [Compound 3, reference compound]", "change in vivo at 100 µmol/kg / %": -2}
{"Compound": "C[C@H](CS)C(=O)N1CCC[C@H]1C(N)=O [Compound 2, reference compound]", "change in vivo at 100 µmol/kg / %": -1}
{"Compound": "COC(=O)[C@H](Cc1ccc(O)cc1)NC(=O)[C@@H]1CCCN1C(=O)[C@H](C)CSC(C)=O [G]", "change in vivo at 100 µmol/kg / %": -15}

Now, please, on to the next compound.
Report change in vivo at 100 µmol/kg for CCOC(=O)[C@H](Cc1c[nH]c2ccccc12)NC(=O)[C@@H]1CCCN1C(=O)[C@H](C)CSC(C)=O [I] tested on Goldblatt two-kidney renal hypertensive rats. -14

###

Recorded Change in blood pressure, 7 hours after administration by entry
- Tested on: Goldblatt two-kidney renal hypertensive rats
- Assay overview: Test 1: antihypertensive activity, oral, tail-plethysmographic blood pressure in Goldblatt two-kidney renal hypertensive rats
- Format: in vivo, rat (male STD Wistar strain)
- Study conditions: oral, 0.1 millimole/kg, 7 hours after administration
Please state the figure in mmHg; there is no need to write the unit.

Use the examples below as a reference point.
{"Sample smiles": "C[C@H](CSC(=O)C(C)(C)C)C(=O)N1CCC[C@H]1C(=O)N[C@@H](Cc1ccccc1)C(=O)O", "Target": "Goldblatt two-kidney renal hypertensive rats", "Units text": "mmHg", "Numeric result": -37}
{"Sample smiles": "CCOC(=O)[C@H](CCSC)NC(=O)[C@@H]1CCCN1C(=O)[C@H](C)CSC(C)=O", "Target": "Goldblatt two-kidney renal hypertensive rats", "Units text": "mmHg", "Numeric result": -27}
{"Sample smiles": "CCC(=O)SC[C@@H](C)C(=O)N1CCC[C@H]1C(=O)N[C@@H](Cc1ccccc1)C(=O)O", "Target": "Goldblatt two-kidney renal hypertensive rats", "Units text": "mmHg", "Numeric result": -36}
{"Sample smiles": "CC(C)C(=O)SC[C@@H](C)C(=O)N1CCC[C@H]1C(=O)N[C@@H](Cc1ccccc1)C(=O)O", "Target": "Goldblatt two-kidney renal hypertensive rats", "Units text": "mmHg", "Numeric result": -29}

Entry under review: CC(=O)SC[C@@H](C)C(=O)N1CCC[C@H]1C(=O)N[C@@H](Cc1ccccc1)C(=O)O . Reported Change in blood pressure, 7 hours after administration? -33

###

Entries and their measured change in vivo at 100 µmol/kg follow.
- System: Goldblatt two-kidney renal hypertensive rats
- Assay overview: Test 1: antihypertensive activity, oral, tail-plethysmographic blood pressure in Goldblatt two-kidney renal hypertensive rats
- Type: in vivo, rat (male STD Wistar strain)
- Study conditions: Rattus norvegicus; oral, 0.1 millimole/kg, at peak time, % of initial blood pressure; read-out: Change in blood pressure, peak time (%)
Note to self: number, then unit, no commentary.

{"Sample smiles": "C[C@H](CSC(=O)C(C)(C)C)C(=O)N1CCC[C@H]1C(=O)N[C@@H](Cc1ccccc1)C(=O)O", "Property": "change in vivo at 100 µmol/kg", "Result": "-20%"}
{"Sample smiles": "CCSSC[C@@H](C)C(=O)N1CCC[C@H]1C(=O)N[C@@H](Cc1ccccc1)C(=O)O", "Property": "change in vivo at 100 µmol/kg", "Result": "-19%"}

What value of measured change in vivo at 100 µmol/kg is listed for CCOC(=O)[C@H](Cc1c[nH]c2ccccc12)NC(=O)[C@@H]1CCCN1C(=O)[C@H](C)CSC(C)=O ? -16%
